ASSAY TEXT: folding stability dG unfold from trypsin proteolysis; higher = more stable
VALUE TYPE: folding stability dG unfold

For the sequence SAGGSAGGKPKMTFPITDIYPPPGGGNVFIRIQSDDKPREFPFPNLENLEIEKDPEDGTVKIKWSAGGSAGG [r6_806_TrROS] , what folding stability dG unfold is on record?
0.129 kcal/mol

For the sequence SAGGSAGGSAGMEYSIDKASGKILIKIPDEDKTWILYDPKTGEKYIFKQIGGKWYKVEKVSAGGSAGGSAGG [r11_1036_TrMRF] , what folding stability dG unfold is on record?
1.57 kcal/mol

For the sequence SAMKPFPAKEAIEQILEEMEDMPLPPGQEEVEFQIRLPDDGAPVQISIERNPGKWKIEIYVGNKPIWITSAG [r14_199_TrROS] , what folding stability dG unfold is on record?
1.7 kcal/mol

For the sequence SAGGTIFIPWEEAEEFIENAFENGEDIEIEFFLDDGWWYKFTITGPDIDLRVVEVVPMPPPPEDPGKKSAGG [r13_839_TrROS] , what folding stability dG unfold is on record?
0.836 kcal/mol

For the sequence SAGGSAMTVTLIVGDKPITIPLTASLSDIKAALEEHPDVPVYIILPNGKRIEMKVSDLIKMMEKAGSAGGSA [r15_36_TrMRF] , what folding stability dG unfold is on record?
2.99 kcal/mol

For the sequence SAGGSAGGSKKPVLAKIAILNSGSPEVAEELAKRLAAELGLSPDEVKVELHVIPVTAPGELLFSAGGSAGGS [r12_1066_TrMRF] , what folding stability dG unfold is on record?
0.465 kcal/mol

For the sequence SAGGSAGGMTFTFPPGARVRIAIYNKNGELIEEREIDEPGAKITIEKDEETGEWRIVSIELLEPSAGGSAGG [r6_523_TrROS_Hall] , what folding stability dG unfold is on record?
3.12 kcal/mol

====

Kindly supply the reported folding stability dG unfold values for the records listed here.
ASSAY TEXT: folding stability dG unfold from trypsin proteolysis; higher = more stable
Write down the numeric answer in kcal/mol and omit the unit.

For the sequence SAGGSADENKKPMYFIMVKIEIKFGGKDHKIEIMIPLDNVEKLAKNIAEELGMEIKDVTVSLYPIDSAGGSA [r15_535_TrROS] , what folding stability dG unfold is on record?
2.79

For the sequence SATPYTFTLPDGYVIPAYKLPDGTVRVTAQYYDPVDRKPVGTYEATADPTDGTIELTFPNGDKATITLPDSA [r9_56_TrMRF] , what folding stability dG unfold is on record?
0.859

For the sequence SAGGSAGGNKSYTVIIRFPMKRKEDPDGEDKKPRPVTIEYTVKSPEDANELKNKLKDNGAEIVPSAGGSAGG [r6_141_TrROS] , what folding stability dG unfold is on record?
0.263

For the sequence SAGGSAGGSAGFKLPPGQEVVFQVSIKLPDGPTQTLEDLENMPPENIDFLEIEISWVPVDSAGGSAGGSAGG [r11_899_TrROS] , what folding stability dG unfold is on record?
1.09

For the sequence SAGGSAGGSALPTSPTYAVVKVPDKYYIVKTKVGDIIFIPDENGIPVPVKVEPFYPIAPEALSAGGSAGGSA [r18_244_TrMRF] , what folding stability dG unfold is on record?
-0.297

For the sequence SAGGSAGGSAGGASLKVVEREVEYYDPETGETVRVKALVTVDPNSDKEILDPEEKEKLLSSAGGSAGGSAGG [r7_557_JUSTAS] , what folding stability dG unfold is on record?
1.02

For the sequence SAGGPPVTLTLTLTFTETRTVRNPATGETVTVEKVTLTLTITLEPGMSKEQLEALLKELRELFPSLESAGGS [r8_306_TrROS_Hall] , what folding stability dG unfold is on record?
3.53

For the sequence SAGGSAGGSAPRVRYRRRVLVYFPADGSVVPVVLEVSPGPLTLRLDLPAASFPPVRIAPLGSAGGSAGGSAG [r3_454_TrMRF] , what folding stability dG unfold is on record?
1.28

For the sequence SAGSVEIKESSLPDSTIITITIPYTSPEEAPERIERLLKELGLSENVQVIEVKYEPSPPVVTVKIKIESAGG [r19_186_JUSTAS] , what folding stability dG unfold is on record?
2.41

For the sequence SGLTLTLPVAPDEELKLTLKLPNTDETVEVEAETVAETGDVFAVAVATPPNGDKKVVPAVIKVEPGEPDESA [r9_770_TrMRF] , what folding stability dG unfold is on record?
0.704

For the sequence SAGGMVYRVKVKITFPDGKTYYIPFPNFKSFEEILNVLKKLGFENLENIPIEVIEIEPIPEVPEELLKSAGG [r13_493_TrMRF] , what folding stability dG unfold is on record?
1.53

For the sequence SAGGSAGGSAGGSLELTFLLEDGTLAKVRIELNEDGELSISVELFELPAPEPVEVRFYPESAGGSAGGSAGG [r7_79_TrROS_Hall] , what folding stability dG unfold is on record?
1.42

For the sequence SAGGSAGGSAGSMAVDLKITISEDPSKPTYTGTVHLPDGTVVTVTSTGSPEELRARLEALLSAGGSAGGSAG [r3_143_JUSTAS] , what folding stability dG unfold is on record?
0.0769

For the sequence SAGGSAGGSAGGSKIYKLKVNGSVEKLIENLKKAGFKVEILSVYYDPETKELYVLFKISSAGGSAGGSAGGS [r4_315_TrMRF] , what folding stability dG unfold is on record?
3.85
